Let's look at some compounds and their measured GI50.
System: OVCAR-4
Assay: NCI tumour cell line growth inhibition, 48 h
Structures can show the parent of a compound that is named as a salt. Activity calls are given as the source filed them. Rule as the data show it: active = GI50 up to about 1.1 µM and inactive = higher.

A selection of reference data follows.
{"columns": ["compound", "tgt", "measured-quantity", "data-value"],
 "data": [
  ["O=S(=O)(/C=C/C=C/[S+]([O-])c1ccccc1)c1ccccc1 (stereo unspecified)", "OVCAR-4", "GI50", "1.59 µM (inactive)"],
  ["Cc1c(-c2coc(-c3ccc([N+](=O)[O-])cc3)n2)c(=O)n(-c2ccccc2)n1C", "OVCAR-4", "GI50", "> 100 µM (inactive)"]
]}

Request: Bench note: what GI50 did CCN(CC)CC(C(=O)Nc1c(C)cccc1C)/C(C)=N\NC(=O)c1ccncc1 (stereo unspecified) show?
Response: > 100 µM (inactive)

Request: Note, next up: CCCC(Sc1nc(N)nc2nc[nH]c12)C(=O)O (stereo unspecified)
Response: > 100 µM (inactive)

Request: Note, next up: C/C(=N\Nc1nc2ccccc2s1)c1ccc2ccccc2n1
Response: 11.2 µM (inactive)

Request: Note, next up: O=C1CCCC2=C1CC1=C(CCCC1=O)N2c1ccccc1C(=O)O
Response: > 100 µM (inactive)

Request: Note, next up: O=C(O)c1ccn(-c2cccc(-n3ccc(C(=O)O)n3)n2)n1
Response: > 100 µM (inactive)

Request: Note, next up: CC(NS(=O)(=O)c1ccc([N+](=O)[O-])cc1)C(=O)O (stereo unspecified)
Response: > 100 µM (inactive)

Request: Note, next up: N[C@@H](Cc1ccc(N(CCCl)CCCl)cc1)C(=O)O [MELPHALAN HYDROCHLORIDE]
Response: 40 µM (inactive)

Request: Note, next up: CCNC(=S)N/N=C/c1cc(OC)ccc1O
Response: 33.7 µM (inactive)

Request: Note, next up: CC1=C2C(=O)[C@H]3[C@@H](CC=C4C[C@@H](O)CC[C@@]43C)[C@@H]2CC[C@]12O[C@@H]1C[C@H](C)CN[C@H]1[C@H]2C
Response: > 44.5 µM (inactive)

Request: Note, next up: COc1c(-c2ccc(O)c(O)c2)oc2c(O)c(O)cc(O)c2c1=O
Response: 50.6 µM (inactive)

Request: Note, next up: COc1cc(C2SCC(=O)N2c2ccc(Oc3ccc(Cl)cc3)c(Cl)c2)cc(OC)c1OC (stereo unspecified)
Response: 42.7 µM (inactive)

Request: Note, next up: CC(C)=C/C(CC(O)(C(F)(F)F)C(F)(F)F)=N\O
Response: > 100 µM (inactive)

Request: Note, next up: Cn1c(=O)c2c3ccccc3n(C)c2n(C)c1=O
Response: > 100 µM (inactive)

Request: Note, next up: O=C1CC[C@@H](S(=O)(=O)c2ccccc2)[C@@H](/C=C/c2ccccc2)O1
Response: > 100 µM (inactive)

Request: Note, next up: CCCCNc1nc(NC2OCC(OC(C)=O)C(OC(C)=O)C2OC(C)=O)c(N=O)c(=O)n1C (stereo unspecified)
Response: > 10 µM (inactive)

Request: Note, next up: N/N=C(\c1nc2ccc([N+](=O)[O-])cc2nc1O)C(O)c1ccc(Cl)c(Cl)c1 (stereo unspecified)
Response: > 100 µM (inactive)

----------
Let's look at some compounds and their measured GI50.
Test system: K562
Test: NCI tumour cell line growth inhibition, 48 h
Activity calls are given as the source filed them. Rule as the data show it: active = GI50 up to about 1.1 µM and inactive = higher.

{"columns": ["compound", "measured-quantity", "data-value"],
 "data": [
  ["NC(=O)c1csc(-c2ccc(CO)o2)n1", "GI50", "> 100 µM (inactive)"],
  ["O=C1C(CN2CCOCC2)CCCC1CN1CCOCC1 (stereo unspecified)", "GI50", "0.48 µM (active)"],
  ["N=C(N)SCCON1C(=O)c2ccccc2C1=O", "GI50", "> 100 µM (inactive)"],
  ["CC(=O)N1CCN(C=S)CC1", "GI50", "> 100 µM (inactive)"],
  ["CS(=O)(=O)OC1CN2CCC1CC2 (stereo unspecified)", "GI50", "> 100 µM (inactive)"],
  ["C=CC1(CC[C@]2(c3ccc(OC)c(OC)c3)C=[N+]([O-])O[C@H](O[C@@H]3CCCC[C@H]3C(C)(C)c3ccccc3)C2)OCC(C)(C)CO1", "GI50", "8.17 µM (inactive)"]
]}

Request: Bench note: what GI50 did CC(=O)OCC1OC(n2c(Br)nc3c2c(=O)n(C)c(=O)n3C)C(OC(C)=O)C1OC(C)=O (stereo unspecified) show?
Response: 53.3 µM (inactive)

Request: Note, next up: COc1ccc(/C=C/c2cc(OC)c(OC)c(OC)c2)cc1OC
Response: > 100 µM (inactive)

Request: Note, next up: CCc1cccc(NC(=O)c2cc(/C=C/c3ccccc3)nc(S)n2)c1
Response: > 100 µM (inactive)

Request: Note, next up: O=C(O)CNS(=O)(=O)c1ccc(NC(=O)CI)cc1
Response: 10.2 µM (inactive)

Request: Note, next up: C=C1C(=O)CC2C1CC(=O)/C(C)=C/CCC(C)(O)C2O (stereo unspecified)
Response: 2.19 µM (inactive)

Request: Note, next up: COc1ccc2c(c1)Oc1cc(O)ccc1[C@@H]2c1ccccc1C(=O)NC(C)c1ccccc1 (stereo partly specified)
Response: 14.8 µM (inactive)

----------
Let's look at some compounds and their measured GI50.
System: BT-549
Experiment: NCI tumour cell line growth inhibition, 48 h
Calls of active or inactive are those of the source. Rule as the data show it: active = GI50 up to about 1.1 µM and inactive = higher. Non-standard residues stand in square brackets, D forms with d. Residues, ends and D or L forms follow the SMILES beside them. ξ: configuration not given here. ξLac(3-iPr) = CC(C)CC(O)C(=O)O; NMeV = CN[CH](C(=O)O)C(C)C; NMeA = CN[CH](C)C(=O)O; βAla = NCCC(=O)O

A selection of reference data follows.
{"columns": ["compound", "data-value"],
 "data": [
  ["Nc1ncc2ncn(C3CCC(CO)O3)c2n1 (stereo not drawn)", "> 100 µM (inactive)"],
  ["CCN(CC)CCn1nc(N)c2nc3cc(Cl)ccc3nc21", "> 100 µM (inactive)"],
  ["CCCCCCCC(CC(=O)NC(CO)C(=O)NC(CO)CC(C)C)OC(=O)CC(CCCCCCC)OC(=O)CC(CCCCCCC)OC1OC(C)C(O)C(OC2OC(C)C(O)C(OC(C)=O)C2O)C1O (stereo not drawn)", "6.47 µM (inactive)"],
  ["CCCCCCCCCCCCCCCCCCNc1ccn(C2OC(COP(=O)(O)OC3CC(n4cc(F)c(=O)[nH]c4=O)OC3COP(=O)(O)OCC3OC(n4ccc(N)nc4=O)C(O)C3O)C(O)C2O)c(=O)n1 (stereo not drawn)", "15.1 µM (inactive)"],
  ["Cc1ccc(/C=N\\NC(=O)c2ccncc2)s1", "> 100 µM (inactive)"]
]}

Request: Bench note: what GI50 did CC(C)(Sc1cc(C(C)(C)C)c(O)c(C(C)(C)C)c1)Sc1cc(C(C)(C)C)c(O)c(C(C)(C)C)c1 show?
Response: > 100 µM (inactive)

Request: Note, next up: CCCCOC(=O)C1CN2C(=NC1(C(F)(F)F)C(F)(F)F)Sc1ccccc12 (stereo not drawn)
Response: 26.1 µM (inactive)

Request: Note, next up: CN(C)C1(N(C)C)Oc2c(c(=O)n(C)c(=O)n2C)C(c2ccc(Br)cc2)C1(F)F (stereo not drawn)
Response: > 100 µM (inactive)

Request: Note, next up: CCC(C)C1NC(=O)C2CCCN2C(=O)C(CC(C)C)OC(=O)CCNC(=O)C(C)N(C)C(=O)C(C(C)C)N(C)C1=O (stereo not drawn) (cyclo([ξLac(3-iPr)]PI[NMeV][NMeA][βAla]); configuration not given here)
Response: > 26.1 µM (inactive)

Request: Note, next up: CCOP(=O)(OCC)/C(C#N)=C/c1cccn1C(C)C
Response: > 100 µM (inactive)

Request: Note, next up: COC(=O)/C=C\C(C#N)(C#N)/N=C/c1cccc(OC)c1
Response: 7.74 µM (inactive)

Request: Note, next up: CSc1ccccc1P(CCP(c1ccccc1SC)c1ccccc1SC)c1ccccc1SC
Response: 38.7 µM (inactive)

Request: Note, next up: NCCCN(CCCCN(CCCN)Cc1ccccc1)Cc1ccccc1
Response: 79.6 µM (inactive)

----------
Test system: PC-3
Assay: NCI tumour cell line growth inhibition, 48 h
The source made the active and inactive calls. Cut-off read from the data, not from the text of the source: active = GI50 up to about 1.1 µM and inactive = higher. Non-standard residues stand in square brackets, D forms with d. Residues, ends and D or L forms follow the SMILES beside them. ξ: configuration not given here. ξLac(3-iPr) = CC(C)CC(O)C(=O)O; NMeV = CN[CH](C(=O)O)C(C)C; NMeA = CN[CH](C)C(=O)O; βAla = NCCC(=O)O
measured-quantity: GI50

A selection of reference data follows.
{"columns": ["molecule", "measured-quantity", "data-value"],
 "data": [
  ["Cc1ccc2c(c1)NC(=O)CC(c1ccccc1)=N2", "GI50", "97.1 µM (inactive)"],
  ["Nc1ccccc1.O=C(O)C(C(F)(F)F)C(F)(F)F", "GI50", "> 100 µM (inactive)"],
  ["CCCC(Sc1nc(N)nc2nc[nH]c12)C(=O)O (stereo not drawn)", "GI50", "> 100 µM (inactive)"]
]}

Request: Bench note: what GI50 did COc1cc(OC)c2c(O)c3c(cc2c1)CC(C)(C)CC3=O show?
Response: > 100 µM (inactive)

Request: Note, next up: Nc1nc(Sc2ccc([N+](=O)[O-])cn2)c2nc[nH]c2n1
Response: 14 µM (inactive)

Request: Note, next up: C[n+]1c(-c2ccc(/C=N/N=C/c3ccc(-c4cn5ccccc5[n+]4C)cc3)cc2)cn2ccccc21
Response: > 100 µM (inactive)

Request: Note, next up: [N-]=[N+]=Nc1ccc2c(c1)Sc1ccccc1N2CCCCCl
Response: 41.3 µM (inactive)

Request: Note, next up: NCCCc1ccc2oc3ccccc3c2c1
Response: 18.7 µM (inactive)

Request: Note, next up: CCC(C)C1NC(=O)C2CCCN2C(=O)C(CC(C)C)OC(=O)CCNC(=O)C(C)N(C)C(=O)C(C(C)C)N(C)C1=O (stereo not drawn) (cyclo([ξLac(3-iPr)]PI[NMeV][NMeA][βAla]); configuration not given here)
Response: 1.79 µM (inactive)

Request: Note, next up: COC(=O)/C=C\C(C#N)(C#N)/N=C/c1cccc(OC)c1
Response: 15.8 µM (inactive)

Request: Note, next up: CCOC(=O)NC(Nc1ccc(S(=O)(=O)Nc2nc(C)cc(C)n2)cc1)(C(=O)OCC)C(F)(F)F (stereo not drawn)
Response: > 100 µM (inactive)

Request: Note, next up: CC(=O)c1c2c(cc3c1CCC3)CCC2
Response: 55.3 µM (inactive)

Request: Note, next up: NC1=NC(=O)[C@H](Cc2c[nH]c3ccccc23)N1C(=O)OCc1ccccc1
Response: 46 µM (inactive)
